GI50 listing for selected compounds.
System: HOP-62
method: NCI tumour cell line growth inhibition, 48 h
Active and inactive are the calls of the source. No stated cut-off is given here; in the data, active = GI50 up to about 1.1 µM and inactive = higher.
property: GI50

compound	measuredResult
O=C1c2ccc(O)cc2C(=O)c2ccc(O)cc21	30.6 µM (inactive)
CC1=C(C(=O)Nc2ccccc2)C(c2ccc3c(c2)OCO3)C(C(=O)Nc2ccccc2)=C(C)N1	41.8 µM (inactive)
Oc1cc(O)c2c(c1)OC(c1ccc(O)c(O)c1)C(O)C2c1c(O)cc(O)c2c1OC(c1ccc(O)c(O)c1)C(O)C2 (stereo not given)	> 100 µM (inactive)
OC1C2[C@@H](O)CCCN2C[C@@H](O)[C@H]1O (stereo not given in full)	> 100 µM (inactive)
CC(C)=CCc1ccc2[nH]c3c(c2c1)C(=O)C(=O)C(C)=C3C(O)C(C)O (stereo not given)	20.3 µM (inactive)

* * *

System: UACC-257
method: NCI tumour cell line growth inhibition, 48 h
Active and inactive are the calls of the source. Cut-off read from the data, not from the text of the source: active = GI50 up to about 1.1 µM and inactive = higher.
Possible outcomes: active, inactive

compound	assignedCategory
COc1cc2c3c(cc(Cl)nc3c1OC)C(O)(CC(C)=O)C(=O)N2 (stereo unspecified)	inactive
O=C(CCC=C(S(=O)(=O)c1ccccc1)S(=O)(=O)c1ccccc1)c1ccccc1	inactive
CC1=CC(=O)/C(=C/NC(=S)NCCc2ccccc2)C(=O)O1	inactive
O=C(CC(C(=O)c1cccs1)c1cccs1)c1ccsc1 (stereo unspecified)	inactive
CC1=NN(c2cccc(S(=O)(=O)O)c2)C2(C1)C(Cl)C(=O)N2c1nc2ccccc2s1 (stereo unspecified)	inactive
NC(=O)c1cc(-c2ccc(-n3ccnc3)cc2)nnc1O	inactive
OC1CCN2Cc3ccccc3N=C12 (stereo unspecified)	inactive
Cc1cc2cc(Cl)ccc2nc1C(=O)c1ccccc1	inactive
CC(C)(CN1CCCCC1)C(/C=C/c1ccc(Cl)c(Cl)c1)=N\NC(=O)N/N=C(/C=C/c1ccc(Cl)c(Cl)c1)C(C)(C)CN1CCCCC1	inactive
CCN1C(c2ccccc2)=CC(c2ccccc2)(C(Cl)(Cl)Cl)C=C1c1ccccc1	inactive
Cc1c(CCCl)c(N=P(c2ccccc2)(c2ccccc2)c2ccccc2)n2c(nc3ccccc32)c1C#N	inactive
CCCCC1CC(c2cccc([N+](=O)[O-])c2)=NO1 (stereo unspecified)	inactive
CC(NNC(=O)c1cc[n+]([BH2-]C#N)cc1)c1ccccc1 (stereo unspecified)	inactive
CC1(C)CCc2cc3c(cc2O1)OCC1c2cc4c(cc2OC31)OCO4 (stereo unspecified)	inactive
CCOC(=O)c1c(C)n(Cc2ccc(Cl)cc2Cl)c2c1cc(O)c1[nH]c3c(c12)CCCC3	inactive
COC(=O)c1ccc2c(c1)C(NC(C)=O)CCc1cc(OC)c(OC)c(OC)c1-2 (stereo unspecified)	active
Cc1ccc([N+](=O)[O-])cc1S(=O)(=O)Nc1ccc(C2=NN(c3ccc([N+](=O)[O-])cc3[N+](=O)[O-])C(c3cccs3)C2)cc1 (stereo unspecified)	inactive
C1CCC(OCc2nnn3c2CCC3)OC1 (stereo unspecified)	inactive
CC(C)(C)C1(O)Cc2ccccc2C(=O)O1 (stereo unspecified)	inactive
COC1CC(OS(=O)(=O)c2ccc(C)cc2)C(OC(=O)c2ccccc2)C(C)O1 (stereo unspecified)	inactive
Cc1cc2c3ccccc3n(C)c2c2c1C(=O)c1ccccc1C2=O	inactive

* * *

System: HOP-18
method: NCI tumour cell line growth inhibition, 48 h
Activity calls are given as the source filed them. Cut-off read from the data, not from the text of the source: active = GI50 up to about 1.1 µM and inactive = higher.
Possible outcomes: T = active, F = inactive

compound	assignedCategory
C/C=C/C=N/N(c1nnc(-c2ccccc2)c(-c2ccccc2)n1)S(=O)(=O)c1ccc(C)cc1	F
COc1cc(/C=C/c2ccc(C)cc2)cc(OC)c1OC	F
O=S(=O)(O)c1ccc(-c2c3nc(c(-c4ccc(S(=O)(=O)O)cc4)c4ccc([nH]4)c(-c4ccc(S(=O)(=O)O)cc4)c4nc(c(-c5ccc(S(=O)(=O)O)cc5)c5ccc2[nH]5)C=C4)C=C3)cc1	F
CC(C)=C1CCC(CN(C)C)C1=O (stereo not given)	F
COC(=O)C(C(=O)C(=O)Nc1c(Cl)cc([N+](=O)[O-])cc1Cl)c1nc2cc(C)c(C)cc2nc1O (stereo not given)	F
COc1ccc(C(C)c2cc3c(cc2OC)OCO3)cc1 (stereo not given)	T
C/C(=N\NC(=N)N)C(CN(C)C)C(c1ccccc1)c1c(O)c2ccccc2oc1=O (stereo not given)	F
O=C(/C=C/c1ccccc1O)c1cccnc1	F
COc1cc2oc(-c3ccc(O)cc3)cc(=O)c2c(O)c1C1OC(CO)C(O)C(O)C1O (stereo not given)	F
O=C(NCCS(=O)(=O)N1C(=O)C2CCCN2C(=O)[C@@H]1Cc1ccccc1)OCc1ccccc1 (stereo not given in full)	F
C1CC2=C(C1)C1=S(S2)SC2=C1CCC2	F
COc1ccc(C2(Cl)C(Cl)(C(F)(F)F)C2(Cl)C(F)(F)F)cc1 (stereo not given)	F
CCCCC1CC(c2cccc([N+](=O)[O-])c2)=NO1 (stereo not given)	F
COc1cc2c(cc1OC)[C@@H](Nc1ccc(C#N)cc1)C1COC(=O)[C@@H]1C2c1cc(OC)c(O)c(OC)c1 (stereo not given in full)	T
C/C=C/C=N/N(C(=O)c1cc([N+](=O)[O-])cc([N+](=O)[O-])c1)C1=NN=C(c2ccccc2)C(c2ccccc2)N1 (stereo not given)	F
COC(=O)/C(C#N)=C1\NN=NN1CCCN1CCOCC1	F
COc1cc(C2C(Cl)C(=O)N2NC(=O)Cc2ccccc2)cc(Br)c1O (stereo not given)	F
CCc1cccc(C)c1NC(=O)CC1Sc2ccccc2NC1=O (stereo not given)	F
CC(=O)Nc1ccc(C(=O)NN2C(=O)C(Cl)C2c2ccc(Cl)cc2)cc1 (stereo not given)	F
COC1CC(OS(=O)(=O)c2ccc(C)cc2)C(OC(=O)c2ccccc2)C(C)O1 (stereo not given)	F
CCCCC/C=C1\CCC(CN(C)C)C1=O (stereo not given)	F
CC1=C(C(=O)Nc2ccccc2)C(c2ccc3c(c2)OCO3)C(C(=O)Nc2ccccc2)=C(C)N1	F
COc1ccc(Nc2nc3ccccc3nc2-c2cccs2)cc1	F
CCCCCCCCCCCC(=O)OCCOCCOCCOCCOCCOC(=O)CCCCCCCCCCC	F
CCOC(=O)CC1=N/C(=N/c2cc(Cl)ccc2Cl)SC1	F
CC(C)=CCCc1c(C)ccc2c1C(=O)C(=O)C(C(C)C)=C2	F
CC(=O)Nc1ccc(/C=c2\sc3nnc(-c4cccnc4)n3c2=O)cc1	F
C=C1C[C@]23CCC4C(C)(C)C(=O)CC[C@]4(C)C2C[C@H]1C(O)C3=O (stereo not given in full)	F
O=C1CC23CC(=O)CC2(C1)c1ccccc1C3=O (stereo not given)	F
C/C(=N/O)c1sc(-c2nc(C)c(/C(C)=N\O)s2)nc1C	F
C=CC(=O)NC(=N)NC#N	F
O=C(/C=C/c1c(O)ccc2ccccc12)c1ccccc1	F
CC(C)N(C(=O)C12C3C4C1C1C2C3C41C#N)C(C)C (stereo not given)	F
COc1nc(NC2OCC(OC(C)=O)C(OC(C)=O)C2OC(C)=O)c(/N=C\C=N\c2c(NC3OCC(OC(C)=O)C(OC(C)=O)C3OC(C)=O)nc(OC)n(C)c2=O)c(=O)n1C (stereo not given)	F
C[N+]1(C)C/C(=C\c2ccncc2)C(=O)/C(=C/c2ccncc2)C1	F

* * *

Test system: SK-OV-3
method: NCI tumour cell line growth inhibition, 48 h
Activity calls are given as the source filed them. Rule as the data show it: active = GI50 up to about 1.1 µM and inactive = higher.

compound	assayedTarget	GI50
Cc1ccc(NC(=O)C(=O)C2C(=O)NC(=O)NC2=O)cc1C	SK-OV-3	> 100 µM (inactive)
CCC1CCc2c(OC)ccc(OCC(=O)O)c2C1=O (stereo unspecified)	SK-OV-3	> 100 µM (inactive)
COc1ccc(N2C(=O)c3c4c(c5c([nH]c6ncccc65)c3C2=O)CCC(C(C)(C)C)C4)cc1 (stereo unspecified)	SK-OV-3	40.6 µM (inactive)
CC(C)CCNC(=O)c1ccc(CNC(=O)/C=C/c2ccc(OCc3ccccc3)cc2)cc1	SK-OV-3	> 100 µM (inactive)
CN1CCc2c(sc3ncn(N)c(=N)c23)C1	SK-OV-3	> 100 µM (inactive)
Cc1noc(C)c1CCCOC1COc2ccccc2OCCOCCOc2ccccc2OC1	SK-OV-3	> 100 µM (inactive)
Cc1cc(S(=O)(=O)Nc2nc(N)nc(N3CCOCC3)n2)c(SCC(=O)O)cc1Cl	SK-OV-3	> 10 µM (inactive)
CCN(CC)c1ccc(C2Nc3ccc4ccccc4c3C3=C2C(=O)CCC3)cc1 (stereo unspecified)	SK-OV-3	38.4 µM (inactive)
Oc1nc(S)nc2c1CCCN2	SK-OV-3	> 100 µM (inactive)
O=S(=O)(c1ccccc1)N1CN2CN(C1)CN(S(=O)(=O)c1ccccc1)C2	SK-OV-3	> 100 µM (inactive)
CCOC(=O)c1c(C(F)(F)F)oc2c1ccc1nc3nonc3nc12	SK-OV-3	20.1 µM (inactive)

* * *

Test system: M14
method: NCI tumour cell line growth inhibition, 48 h
Active and inactive are the calls of the source. No stated cut-off is given here; in the data, active = GI50 up to about 1.1 µM and inactive = higher.

compound	GI50
O=C(CCC=C(S(=O)(=O)c1ccccc1)S(=O)(=O)c1ccccc1)c1ccccc1	7.1 µM (inactive)
Brc1ccc(-c2ccc(-c3ccc(Br)s3)s2)s1	> 100 µM (inactive)
O=C1C(Br)=C(Br)C(=O)c2c(O)ccc(O)c21	1.85 µM (inactive)
CC1(C)OC2C(O)C(CO)OC2(C(F)F)O1 (stereo not given)	> 100 µM (inactive)
CCOC(=O)C1(Cc2ccccc2)Cc2cc3c(cc2C1)CCC3	29.5 µM (inactive)
C=C1C(=O)O[C@@H]2C[C@@H]3[C@]4(CC[C@]5(C)[C@@H]([C@H](C)CC/C=C(\C)C=O)CC[C@@]35C)C[C@]4(CCC(=O)OC)[C@H]12	1.36 µM (inactive)
CC(C)(C)C1(O)Cc2ccccc2C(=O)O1 (stereo not given)	> 100 µM (inactive)
CCc1cccc(C)c1NC(=O)CC1Sc2ccccc2NC1=O (stereo not given)	39.4 µM (inactive)
CN(C)Cc1cc(C(=O)/C=C/c2cccc(Cl)c2)cc(CN(C)C)c1O	3.37 µM (inactive)
COc1cc2oc(-c3ccc(O)cc3)cc(=O)c2c(O)c1C1OC(CO)C(O)C(O)C1O (stereo not given)	> 100 µM (inactive)
